Below: a set of entries, each annotated with reported Ki.
# assay system: Muscarinic acetylcholine receptor M2 (Homo sapiens, UniProt P08172)
# Sequence (P08172 whole entry): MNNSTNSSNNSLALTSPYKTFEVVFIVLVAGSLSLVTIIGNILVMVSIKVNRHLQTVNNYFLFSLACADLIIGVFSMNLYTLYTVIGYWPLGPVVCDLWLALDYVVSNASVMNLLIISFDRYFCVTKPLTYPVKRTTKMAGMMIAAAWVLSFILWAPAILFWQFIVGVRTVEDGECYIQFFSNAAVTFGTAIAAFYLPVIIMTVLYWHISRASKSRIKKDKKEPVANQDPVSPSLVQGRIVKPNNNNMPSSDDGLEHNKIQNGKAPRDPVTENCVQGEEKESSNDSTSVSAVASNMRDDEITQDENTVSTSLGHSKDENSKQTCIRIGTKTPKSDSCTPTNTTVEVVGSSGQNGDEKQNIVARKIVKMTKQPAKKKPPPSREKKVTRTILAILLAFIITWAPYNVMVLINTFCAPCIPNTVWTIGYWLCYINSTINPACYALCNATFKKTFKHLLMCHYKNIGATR
# assay details: Antagonistic activity against Muscarinic acetylcholine receptor M2
# Format: functional
recorded metric: Ki (pM)

>>> obs_value("COc1ccc(S(=O)(=O)c2ccc(C3(C4CCN(C5CCN(C(=O)c6cccc7cccc(F)c67)CC5)CC4)OCCO3)cc2)cc1")
990
>>> obs_value("COc1ccc(S(=O)(=O)c2ccc(C3(C4CCN(C5CCN(C(=O)c6cccc7c(F)cc(F)cc67)CC5)CC4)OCCO3)cc2)cc1")
230
>>> obs_value("COc1ccc(S(=O)(=O)c2ccc(C3(C4CCN(C5CCN(C(=O)c6cccc7c(F)ccc(F)c67)CC5)CC4)OCCO3)cc2)cc1")
290
>>> obs_value("CCCS(=O)(=O)N1CCC(N2CCC(C3(c4ccc(S(=O)(=O)c5ccc(OC)cc5)cc4)OCCO3)CC2)CC1")
33300

* * *

# assay system: Muscarinic acetylcholine receptor M2 (Homo sapiens, UniProt P08172)
# assay details: Antagonistic activity against muscarinic acetylcholine receptor M2
# Assay type: functional
pKi: −log10 of the molar value.
pKi values, listed per item
recorded metric: pKi

>>> obs_value("COc1ccc(S(=O)(=O)c2ccc(C3(C4CCN(C5CCN(C(=O)c6ccc(F)c7ccccc67)CC5)CC4)OCCO3)cc2)cc1")
9.29
>>> obs_value("COc1ccc(S(=O)(=O)c2ccc(C3(C4CCN(C5CCN(C(=O)c6cccc7cc(F)ccc67)CC5)CC4)OCCO3)cc2)cc1")
9.09
>>> obs_value("COc1ccc(S(=O)(=O)c2ccc(C3(C4CCN(C5CCN(C(=O)c6cccc7c(F)cccc67)CC5)CC4)OCCO3)cc2)cc1")
9.70
>>> obs_value("COc1ccc(S(=O)(=O)c2ccc(C3(C4CCN(C5CCN(C(=O)c6cccc7cc(Cl)ccc67)CC5)CC4)OCCO3)cc2)cc1")
8.85

* * *

# assay system: Muscarinic acetylcholine receptor M2 (Homo sapiens)
# assay details: Antagonistic activity against muscarinic acetylcholine receptor M2
# Type: functional
In this section we review reported Ki values for a set of compounds.
recorded metric: Ki (nM)

>>> obs_value("COc1ccc(S(=O)(=O)c2ccc(C3(C4CCN(C5CCN(C(=O)c6cccc7c(Br)cccc67)CC5)CC4)OCCO3)cc2)cc1")
0.51
>>> obs_value("COc1ccc(S(=O)(=O)c2ccc(C3(C4CCN(C5CCN(C(=O)c6cccc7ccc(F)cc67)CC5)CC4)OCCO3)cc2)cc1")
1.2
>>> obs_value("COc1ccc(S(=O)(=O)c2ccc(C3(C4CCN(C5CCN(C(=O)c6cccc7ccccc67)CC5)CC4)OCCO3)cc2)cc1")
0.14
